This listing pairs compounds with measured AUC(0-inf).
assay: AUC (0 to infinity) in Balb/c mouse at 3 mg/kg, iv measured upto 24 hrs by LC-MS/MS analysis; assay type: ADME, organism-based; design: route intravenous, dose 3 mg/kg, time <=24; settings: in vivo
# unit: µM·h | format: bare number

Given the entry N[C@H](C(=O)N1CC(CNc2ccc(F)cc2)C2(C1)CN(c1cc(F)cc(F)c1)C2)c1ccc(O)cc1 (mixture of isomers; form 1) , report its measured AUC(0-inf). 3

Next compound: Nc1ccc(C[C@@H](N)C(=O)N2CC(CNc3ccc(F)cc3)C3(C2)CN(c2cc(F)cc(F)c2)C3)cc1 (mixture of isomers) 2.48

Next compound: O=C(Cc1ccc(O)cc1)N1CC(CNc2ccccc2)C2(C1)CN(c1ccc(F)cc1)C2 (stereo not drawn) 1.82

----------
experiment: Half life in mouse liver microsomes at 0.1 uM in presence or absence of NADPH by LC-MS/MS analysis; type: ADME, Microsome
This listing pairs compounds with measured half-life at 0.1 µM.
# unit: min | format: bare number

N#Cc1cc(CC(=O)N2CC(CNc3ccc(F)cc3)C3(C2)CN(c2cc(F)cc(F)c2)C3)ccc1O (racemic)
70
O=C(Cc1ccc(O)nc1)N1CC(CNc2ccc(F)cc2)C2(C1)CN(c1cc(F)cc(F)c1)C2 (racemic)
17
O=C(Cc1ccc(O)c(F)c1)N1CC(CNc2ccc(F)cc2)C2(C1)CN(c1ccc(F)cc1)C2 (racemic)
13
O=C(Cc1cc(F)c(O)c(F)c1)N1CC(CNc2ccc(F)cc2)C2(C1)CN(c1ccc(F)cc1)C2 (racemic)
42

Given the entry O=C(N1CC(CNc2ccc(F)cc2)C2(C1)CN(c1cc(F)cc(F)c1)C2)C(F)(F)c1ccc(O)c(C(F)(F)F)c1 (racemic) , report its measured half-life at 0.1 µM. 16

Next compound: O=C([C@@H](O)c1ccc(O)cc1)N1CC(CNc2ccc(F)cc2)C2(C1)CN(c1cc(F)cc(F)c1)C2 (mixture of isomers) 11

Next compound: O=C(Cc1ncc(O)cn1)N1CC(CNc2ccc(F)cc2)C2(C1)CN(c1cc(F)cc(F)c1)C2 (racemic) 67

----------
This listing pairs molecules with measured clearance.
assay: Blood clearance in Balb/c mouse at 3 mg/kg, iv measured upto 24 hrs by LC-MS/MS analysis; format: ADME, organism-based; conditions: whole blood
# unit: mL/min/kg | format: bare number

These recorded examples may help you get a feel for the data.
CC1(C)c2nc(-c3ccc(F)cc3)c(Nc3ccc(F)cc3)n2CCN1C(=O)CN [GANAPLACIDE]
37.8
N[C@H](C(=O)N1CC(CNc2ccc(F)cc2)C2(C1)CN(c1cc(F)cc(F)c1)C2)c1ccc(O)cc1 (mixture of isomers; form 1)
33.7
Nc1ccc(C[C@@H](N)C(=O)N2CC(CNc3ccc(F)cc3)C3(C2)CN(c2cc(F)cc(F)c2)C3)cc1 (mixture of isomers)
40.6
O=C(Cc1ccc(O)cc1)N1CC(CNc2ccccc2)C2(C1)CN(c1ccc(F)cc1)C2 (stereo not given)
63

Would you kindly look at the next entry?
Given the entry "CS(=O)(=O)c1ccc(-c2cnc(N)c(-c3ccc(C(F)(F)F)nc3)c2)cc1" , report its measured clearance. 3

----------
This listing pairs compounds with measured half-life at 0.1 µM.
assay: Half life in human liver microsomes at 0.1 uM in presence or absence of NADPH by LC-MS/MS analysis; assay type: ADME, Microsome
# unit: min | format: bare number

These recorded examples may help you get a feel for the data.
N[C@H](C(=O)N1CC(CNc2ccc(F)cc2)C2(C1)CN(c1cc(F)cc(F)c1)C2)c1ccc(O)cc1 (mixture of isomers; form 1)
150
O=C(Cc1ccc(O)c(C(F)(F)F)c1)N1CC(CNc2ccc(F)cc2)C2(C1)CN(c1cc(F)cc(F)c1)C2 (racemic)
15
O=C(Cc1cc(F)c(O)c(F)c1)N1CC(CNc2ccc(F)cc2)C2(C1)CN(c1ccc(F)cc1)C2 (racemic)
46
O=C(Cc1ccc(C(F)F)cc1)N1CC(CNc2ccc(F)cc2)C2(C1)CN(c1ccc(F)cc1)C2 (racemic)
7.6
N[C@H](Cc1ccc(O)cc1)C(=O)N1CC(CNc2ccc(F)cc2)C2(C1)CN(c1cc(F)cc(F)c1)C2 (mixture of isomers)
34
O=C(Cc1ccnc(O)c1)N1CC(CNc2ccc(F)cc2)C2(C1)CN(c1cc(F)cc(F)c1)C2 (racemic)
12
O=C(Cc1ncc(O)cn1)N1CC(CNc2ccc(F)cc2)C2(C1)CN(c1cc(F)cc(F)c1)C2 (racemic)
64
O=C(N1CC(CNc2ccc(F)cc2)C2(C1)CN(c1cc(F)cc(F)c1)C2)C(F)(F)c1ccc(O)cc1 (racemic)
23

Given the entry O=C(Cc1ccc(O)cn1)N1CC(CNc2ccc(F)cc2)C2(C1)CN(c1cc(F)cc(F)c1)C2 (racemic) , report its measured half-life at 0.1 µM. 12

----------
test: Half life in mouse liver microsomes at 0.1 uM in presence or absence of NADPH by LC-MS/MS analysis; assay type: ADME, Microsome
This listing pairs compounds with measured half-life at 0.1 µM.
# unit: min | format: bare number

O=C(Cc1ccc(C(F)F)cc1)N1CC(CNc2ccc(F)cc2)C2(C1)CN(c1ccc(F)cc1)C2 (racemic)
6.6
NC(=O)c1cc(CC(=O)N2CC(CNc3ccc(F)cc3)C3(C2)CN(c2cc(F)cc(F)c2)C3)ccc1O (racemic)
21
N[C@@H](C(=O)N1CC(CNc2ccc(F)cc2)C2(C1)CN(c1cc(F)cc(F)c1)C2)c1ccc(O)cc1 (mixture of isomers)
48
C[C@@H](C(=O)N1CC(CNc2ccc(F)cc2)C2(C1)CN(c1cc(F)cc(F)c1)C2)c1ccc(O)cc1 (mixture of isomers)
7
O=C(N1CC(CNc2ccc(F)cc2)C2(C1)CN(c1cc(F)cc(F)c1)C2)C(F)(F)c1ccc(O)cc1 (racemic)
12

Would you kindly look at the next entry?
Given the entry N[C@H](Cc1ccc(O)cc1)C(=O)N1CC(CNc2ccc(F)cc2)C2(C1)CN(c1cc(F)cc(F)c1)C2 (mixture of isomers) , report its measured half-life at 0.1 µM. 20

----------
test: Half life in human liver microsomes at 0.1 uM in presence or absence of NADPH by LC-MS/MS analysis; type: ADME, Microsome
This listing pairs molecules with measured log10 of half-life at 0.1 µM.
Log scale reminder: half-life at 0.1 µM in min, then log10 taken.

These recorded examples may help you get a feel for the data.
Nc1ccc(C[C@@H](N)C(=O)N2CC(CNc3ccc(F)cc3)C3(C2)CN(c2cc(F)cc(F)c2)C3)cc1 (mixture of isomers)
2.18
O=C([C@@H](O)c1ccc(O)cc1)N1CC(CNc2ccc(F)cc2)C2(C1)CN(c1cc(F)cc(F)c1)C2 (mixture of isomers)
0.95

Given the entry C[C@@H](C(=O)N1CC(CNc2ccc(F)cc2)C2(C1)CN(c1cc(F)cc(F)c1)C2)c1ccc(O)cc1 (mixture of isomers) , report its measured log10 of half-life at 0.1 µM. 0.78

Next molecule: NC(=O)c1cc(CC(=O)N2CC(CNc3ccc(F)cc3)C3(C2)CN(c2cc(F)cc(F)c2)C3)ccc1O (racemic) 1.04

Next molecule: O=C(Cc1ccc(O)c(F)c1)N1CC(CNc2ccc(F)cc2)C2(C1)CN(c1ccc(F)cc1)C2 (racemic) 1.23

Next molecule: O=C(Cc1ccc(O)nc1)N1CC(CNc2ccc(F)cc2)C2(C1)CN(c1cc(F)cc(F)c1)C2 (racemic) 1.32

Next molecule: O=C(N1CC(CNc2ccc(F)cc2)C2(C1)CN(c1cc(F)cc(F)c1)C2)C(F)(F)c1ccc(O)c(C(F)(F)F)c1 (racemic) 1.26
